Entries and their inhibition
Experiment: Antiangiogenic activity against chorioallantoic membrane (CAM) assay at 10 ug/egg
Type: functional, tissue-based
Form entry: value (%) — number only.

# molecule, measurement_unit, inhibition
data = [
    ("C[C@@H]1CC[C@H]2[C@@H](C)/C(=C\\c3ccccc3)O[C@@H]3OC4(C)CC[C@@H]1[C@]32OO4 (single isomer, unassigned)", "%", 10),
    ("C[C@@H]1CC[C@H]2[C@@H](C)C(=Cc3ccccc3)O[C@@H]3OC4(C)CC[C@@H]1[C@]32OO4 (single isomer, unassigned)", "%", 5),
    ("C/C(Br)=C1/O[C@@H]2OC3(C)CC[C@H]4[C@H](C)CC[C@@H]([C@H]1C)[C@@]24OO3 (single isomer, unassigned)", "%", 43),
    ("C[C@@H]1CC[C@H]2[C@@H](C)/C(=C\\Br)O[C@@H]3O[C@]4(C)CC[C@@H]1[C@]32OO4", "%", 80),
]

// next entry
Request: Report inhibition for CCC/C(Br)=C1\O[C@@H]2OC3(C)CC[C@H]4[C@H](C)CC[C@@H]([C@H]1C)[C@@]24OO3 (single isomer, unassigned) please.
Result: 57

Cited source for all entries: ChEMBL document CHEMBL1146795
